Assay: amyloid nucleation score (Sup35N fusion, yeast selection) (log enrichment); library NNK3; higher = more nucleation; inactive = no reads after selection;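 also: zero at mode of non-aggregating sequences after 7 days selection at 30°C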
endpoint label: amyloid nucleation score

{"columns": ["substance", "result"],
 "data": [
  ["PFSFCHLLLSKISIGWRYSL", "inactive"],
  ["VGQYGRFDTSQFCVFVVGE", "inactive"],
  ["YFISRCIWLVKSYREIELRW", "inactive"],
  ["SVYSITSCMHGVAQSEVMFD", 1.1],
  ["MILLFVVAFILLTEYICWAI", 0.601],
  ["NTRLSRLKIVFPCL", "inactive"],
  ["NACSARMGVVYNMLPSGESR", "inactive"],
  ["GNSIRAVVLLRMGLELDSGV", "inactive"],
  ["LYCGDSI", "inactive"],
  ["TLGIWRDYSYKTILRRWDDR", "inactive"],
  ["CIRLRKANINRKDQKRGCMV", "inactive"],
  ["DDSMHDGLRVTRRVCKRGSF", "inactive"],
  ["TYFYSIIYYIYGYVFLRRAY", -0.346],
  ["GKCRQGYTRMWHNYMLMGIL", "inactive"],
  ["VLGMNEPCSFW", "inactive"],
  ["LAPRSMGIATSSHGSSNVIG", -0.387],
  ["YCIVLKYNQLLSTMSANNMY", 1.19],
  ["IHRMMAYDFCRNLYFSEQWG", "inactive"],
  ["LKLWYPLSFIDVRAPRA", "inactive"],
  ["VVDILFKMHEVDSVI", "inactive"],
  ["LNLSYGM", "inactive"],
  ["ILFSQETRYELSL", "inactive"],
  ["CNFLGSRLGYFGNYIFI", "inactive"],
  ["FLMNHVLQNW", "inactive"],
  ["PPFYMCFYLFVGLRNSMGWL", "inactive"],
  ["CFSFYVGCGRMQEPPRLGAG", 0.785],
  ["YFFIPLMF", 0.725],
  ["IMCRLMSKVYTMPQYEILSF", "inactive"],
  ["VNLVLIISNPR", "inactive"],
  ["LTDRQVCNLIWNNAYGFLC", 0.257],
  ["YIFRIHGPLPILHTRYPIRR", "inactive"],
  ["SVNCHHLPNLHCWKYTKVEY", "inactive"],
  ["SMRILR", "inactive"],
  ["ILSYARTFVLIDNKVGMLR", "inactive"],
  ["VILQMT", "inactive"],
  ["TCSHVYQTYAVKAASKNIMI", "inactive"],
  ["VYFGSINYRRGGGYGYHSVI", 0.027],
  ["HAEFSEHITCGGSGPSCFVG", "inactive"],
  ["RLNCDCPAMHVCN", 2.35],
  ["SAMFTGNLYFDFVDPCYSGW", "inactive"],
  ["PFRVLLQGIKDAPSKFIDSG", "inactive"],
  ["TKLMGLSVLLIEVIVGVSCW", "inactive"],
  ["PVSYVLEEVEPRVRVSGPSG", "inactive"],
  ["INVDWFSPFGVLKNSSK", "inactive"],
  ["ASPYTGDWDTVMC", "inactive"],
  ["YFCSCFRFSLNN", 2.8],
  ["AYSYAYGHCRYGSEVS", "inactive"],
  ["LGKKLDCGDSMRSVRPICRG", "inactive"],
  ["LNPNYRNAYLNYRVLFY", "inactive"],
  ["HPMLFSFYVKGRVFLSRV", "inactive"],
  ["DALAVSINCSLFRCCSM", 3.3],
  ["RNCVSSGCCRRFSD", "inactive"],
  ["MTYHDGTGLFGVVL", "inactive"],
  ["ILVFVFSLRRIFAYMAVMSG", "inactive"],
  ["CQLGSSLGDDTEGSVAIPAV", "inactive"],
  ["PAMDII", "inactive"],
  ["MPFPVGNFHQGDNMNVSQCG", 0.61],
  ["SNYWNWGRGYVCSRFRELVI", "inactive"],
  ["DNLWRVRLRCKAFSLYVLNR", "inactive"],
  ["FRQYKSPGDLPRMDAVACGK", -0.832],
  ["LFGCEQRYP", "inactive"],
  ["TCISFYETVAL", "inactive"],
  ["SIVICS", "inactive"],
  ["NVSYLGEVWYKFRLCVVCSR", 0.159],
  ["GKSTYVLFGKWNTEKTRNRG", "inactive"],
  ["IMLGRANSIYMH", "inactive"],
  ["VMYHGMITLLVMLKTEQRKK", "inactive"],
  ["SQFTIVVTAVLVT", "inactive"],
  ["HLTHVYVADSVGLKLFVYHP", 1.9],
  ["VLRSANCCCGFD", "inactive"],
  ["RNVVAESRKSWGHCVRVTYT", "inactive"],
  ["MSVRPL", "inactive"],
  ["GSTYTVGSAGSSMTTRDLDM", "inactive"]
]}
